Entries and their measured IC50 follow.
molecular target: Protein farnesyltransferase (Homo sapiens, UniProt P49354+P49356); experiment: Inhibitory activity against recombinant human farnesyltransferase; type: protein-complex assay
The figure you give is taken to be in µM; do not add the unit.

INPUT: What does the record list as IC50 for Clc1cc2c(cc1Cl)C(OCc1ccsc1Cl)C(Cn1ccnc1)S2 (stereo not drawn) ?
OUTPUT: 1.4

# next compound below
INPUT: What does the record list as IC50 for O=C(Cc1ccccc1)N1CCN(C2c3ccc(Cl)cc3CCc3cccnc32)CC1 (stereo not drawn) ?
OUTPUT: 2.7

###

target: Geranylgeranyl transferase type I (Homo sapiens, UniProt P49354+P53609); assay: Inhibitory activity against Geranylgeranyl transferase type I
Entries and their measured IC50 follow.

Please review the following examples before continuing.
INPUT: Param readout= IC50; system= Geranylgeranyl transferase type I (Homo sapiens, UniProt P49354+P53609); entry= Fc1ccc2c(c1)[C@@H](OCc1ccc(Cl)cc1Cl)[C@@H](Cn1ccnc1)S2 ; returns value.
OUTPUT: 18.3 µM

INPUT: Param readout= IC50; system= Geranylgeranyl transferase type I (Homo sapiens, UniProt P49354+P53609); entry= Clc1ccc(COC2c3c(Cl)cc(Cl)cc3SC2Cn2ccnc2)cc1 (stereo not drawn) ; returns value.
OUTPUT: 18.8 µM

# next molecule below
INPUT: Param readout= IC50; system= Geranylgeranyl transferase type I (Homo sapiens, UniProt P49354+P53609); entry= CC(=O)N1CCN(c2nc(CO[C@@H]3c4cc(C(C)(C)C)ccc4S[C@@H]3Cn3ccnc3)ns2)CC1 ; returns value.
OUTPUT: > 39 µM

###

biological target: Protein farnesyltransferase (Homo sapiens, UniProt P49354+P49356); assay: Inhibitory activity against farnesyltransferase (FPT) (20 ug/mL); type: protein-complex assay
Entries and their measured inhibition follow.
The figure you give is taken to be in %; do not add the unit.

Please review the following examples before continuing.
INPUT: What does the record list as inhibition for Fc1ccc2c(c1)[C@@H](OCc1ccc(Cl)cc1Cl)[C@@H](Cn1ccnc1)S2 ?
OUTPUT: 91

INPUT: What does the record list as inhibition for Clc1sccc1CO[C@@H]1c2ccccc2S[C@@H]1Cn1ccnc1 ?
OUTPUT: 94

INPUT: What does the record list as inhibition for Clc1sccc1CO[C@@H]1c2cc(Br)ccc2S[C@@H]1Cn1ccnc1 ?
OUTPUT: 88

INPUT: What does the record list as inhibition for Fc1ccc2c(c1)[C@@H](OCc1c(Cl)cccc1Cl)[C@@H](Cn1ccnc1)S2 ?
OUTPUT: 90

INPUT: What does the record list as inhibition for Fc1ccc2c(c1)S[C@H](Cn1ccnc1)[C@@H]2OCc1ccsc1 ?
OUTPUT: 91

INPUT: What does the record list as inhibition for CC(=O)N1CCN(c2nc(CO[C@@H]3c4cc(C(C)(C)C)ccc4S[C@@H]3Cn3ccnc3)ns2)CC1 ?
OUTPUT: 86

INPUT: What does the record list as inhibition for [O-][S+]1c2cc(Cl)ccc2[C@@H](OCc2ccsc2Cl)[C@H]1Cn1ccnc1 (some centres not stated) ?
OUTPUT: 79

INPUT: What does the record list as inhibition for Fc1ccc2c(c1)[C@@H](OCc1ccsc1Cl)[C@@H](Cn1ccnc1)S2 ?
OUTPUT: 95

INPUT: What does the record list as inhibition for Clc1ccc(COC2c3c(Cl)cc(Cl)cc3SC2Cn2ccnc2)cc1 (configuration not stated) ?
OUTPUT: 83

INPUT: What does the record list as inhibition for Clc1ccc2c(c1)S[C@H](Cn1ccnc1)[C@@H]2OCc1c(Cl)ccc2c1OCO2 ?
OUTPUT: 80

***
INPUT: What does the record list as inhibition for Cc1onc(-c2ccccc2)c1CO[C@@H]1c2ccc(Cl)cc2S[C@@H]1Cn1ccnc1 ?
OUTPUT: 90

INPUT: What does the record list as inhibition for FC(F)(F)c1ccc2c(c1)S[C@H](Cn1ccnc1)[C@@H]2OCc1ccsc1Cl ?
OUTPUT: 75

###

Entries and their measured inhibition follow.
biological target: Protein farnesyltransferase (Homo sapiens, UniProt P49354+P49356); assay: Inhibitory activity against farnesyltransferase (FPT) (20 ug/mL); type: protein-complex assay
The figure you give is taken to be in %; do not add the unit.

Please review the following examples before continuing.
INPUT: What does the record list as inhibition for Clc1ccc2c(c1)S[C@H](Cn1ccnc1)[C@@H]2OCc1ccsc1Cl ?
OUTPUT: 96

INPUT: What does the record list as inhibition for Clc1ccc2c(c1)C(OCc1c(Cl)cccc1Cl)C(Cn1ccnc1)S2 (stereo not drawn) ?
OUTPUT: 85

INPUT: What does the record list as inhibition for Clc1sccc1CO[C@@H]1c2c(ccc3c2CCCC3)S[C@@H]1Cn1ccnc1 ?
OUTPUT: 90

INPUT: What does the record list as inhibition for Clc1cccc2c1[C@@H](OCc1ccsc1Cl)[C@@H](Cn1ccnc1)S2 ?
OUTPUT: 89

INPUT: What does the record list as inhibition for Clc1cccc2c1S[C@H](Cn1ccnc1)[C@@H]2OCc1ccsc1Cl ?
OUTPUT: 92

***
INPUT: What does the record list as inhibition for Clc1ccc2c(c1)S[C@H](Cn1ccnc1)[C@@H]2OCc1cnc2cc3c(cc2c1Cl)OCO3 ?
OUTPUT: 69

INPUT: What does the record list as inhibition for Clc1ccc2c(c1)S[C@H](Cn1ccnc1)[C@@H]2OCc1cc(Cl)sc1Cl ?
OUTPUT: 89

INPUT: What does the record list as inhibition for Clc1ccc2c(c1)S[C@H](Cn1ccnc1)[C@@H]2OCc1ccc(Cl)s1 ?
OUTPUT: 88
